Reference source for all entries: PubChem BioAssay AID1159580

# Test Description: chemical genetic growth profiling, strain panel (AID 1159580);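 note: tested at 20 µM; growth read once vehicle control cultures reached saturation at 30 °C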
# Condition Notes: S. cerevisiae deletion strains, growth OD, locus YNL209W, strain ssb2, stronger effect = lower value
Among all 5,500 compounds or so, about 2,000 (36%) were called active. Inconclusive results (about 18%) are left out. This is one part of the list.
normalized growth strictly less than 1 = True. Otherwise False.

Lookup: State whether 1 exceeds normalized growth recorded for C=C(C)[C@H]1COc2cc3oc(=O)ccc3cc2O1 .
Found: True

Lookup: Another: O=c1c(O)c(-c2ccc(O)c(O)c2)oc2cc(O)cc(O)c12
Found: True

Lookup: Another: C[C@]12CCC3c4ccc(O)cc4CCC3C1C[C@@H](O)[C@@H]2O (some centres not stated)
Found: False
